# assay-text: Plasma pharmacokinetics following a single intravenous and subcutaneous injection of a combination of formoterol and budesonide
# stated-conditions: male, Gottingen, minipig, in vivo, Plasma concentration of formoterol, SC5 0.4 μg/kg, combination, male 1-0771, 0.0333 hr
quantity-kind: concentration at 0.0333 hr (ng/mL)
One number for each entry, in ng/mL.

Supply measured concentration at 0.0333 hr of COc1ccc(CC(C)NCC(O)c2ccc(O)c(NC=O)c2)cc1 (stereo not shown) [Formoterol, formoterol] in your reply.
0.133

* * *

# assay-text: Plasma pharmacokinetics following a single intravenous and subcutaneous injection of a combination of formoterol and budesonide
# stated-conditions: male, Gottingen, minipig, in vivo, Tmax, formoterol 0.4 μg/kg SC5 (5 sites), combination, male 1-0771
quantity-kind: Tmax (min)
Numbers only, in min.

Supply measured Tmax of COc1ccc(CC(C)NCC(O)c2ccc(O)c(NC=O)c2)cc1 (stereo not shown) in your reply.
10

* * *

# assay-text: Plasma pharmacokinetics following a single intravenous and subcutaneous injection of a combination of formoterol and budesonide
# stated-conditions: male, Gottingen, minipig, in vivo, iv, 0.4 ug/kg, AUCinf, formoterol 0.4 μg/kg IV in combination with budesonide, male 1-0771
quantity-kind: AUC(0-inf) (ng·h/mL)
One number for each entry, in ng·h/mL.

Supply measured AUC(0-inf) of COc1ccc(CC(C)NCC(O)c2ccc(O)c(NC=O)c2)cc1 (stereo not shown) in your reply.
0.264

* * *

# assay-text: in vivo
# stated-conditions: male, Gottingen, minipig, in vivo, sc, 4 ug/kg, bioavailability
quantity-kind: bioavailability

Supply measured bioavailability of OCc1cc(C(O)CNCCCCCCOCCCCc2ccccc2)ccc1O (racemic) [Salmeterol] in your reply.
73.7 to 86.3%

* * *

# assay-text: in vivo
# stated-conditions: female, Gottingen, minipig, in vivo, iv, 4 ug/kg, AUCinf
quantity-kind: AUC(0-inf) (ng·h/mL)
Numbers only, in ng·h/mL.

Supply measured AUC(0-inf) of OCc1cc(C(O)CNCCCCCCOCCCCc2ccccc2)ccc1O (racemic) in your reply.
1.47

* * *

# assay-text: Plasma pharmacokinetics following a single intravenous and subcutaneous injection of a combination of formoterol and budesonide
# stated-conditions: male, Gottingen, minipig, in vivo, Plasma concentration of formoterol, SC5 0.4 μg/kg, combination, male 1-0771, 0.167 hr
quantity-kind: concentration at 0.167 hr

Supply measured concentration at 0.167 hr of COc1ccc(CC(C)NCC(O)c2ccc(O)c(NC=O)c2)cc1 (stereo not shown) [Formoterol, formoterol] in your reply.
0.217 ng/mL

* * *

# assay-text: Plasma pharmacokinetics following a single intravenous and subcutaneous injection of a combination of formoterol and budesonide
# stated-conditions: female, Gottingen, minipig, in vivo, Plasma concentration of formoterol, SC1 0.4 μg/kg, combination, female 2-0623, 0.0833 hr
quantity-kind: concentration at 0.0833 hr

Supply measured concentration at 0.0833 hr of COc1ccc(CC(C)NCC(O)c2ccc(O)c(NC=O)c2)cc1 (stereo not shown) [Formoterol, formoterol] in your reply.
0.284 ng/mL

* * *

# assay-text: Plasma pharmacokinetics following a single intravenous and subcutaneous injection of a combination of formoterol and budesonide
# stated-conditions: male, Gottingen, minipig, in vivo, Plasma concentration of formoterol, SC1 0.4 μg/kg, combination, male 1-0771, 0.500 hr
quantity-kind: concentration at 0.5 hr (ng/mL)
Answers are plain numbers, in ng/mL.

Supply measured concentration at 0.5 hr of COc1ccc(CC(C)NCC(O)c2ccc(O)c(NC=O)c2)cc1 (stereo not shown) in your reply.
0.161
